# subject-of-test: T1, hROR2-Fc (human ROR2 Fc fusion protein) (human, UniProt Q01974 34-403, limits assumed)
# T1 construct: Given both as hROR2-Fc and as Fc-hROR2, so the order of the two parts is not certain; also called Fc-hROR2; not shown: human Fc part (captured by a mouse anti-human IgG CH2 / Fcγ mAb)
# procedure-summary: SPR (Biacore X100), Fc-hROR2 captured on CM5 chip via mouse anti-human Fcγ mAb, Fab as analyte, 1:1 binding model
In this section we review reported kon values for a set of binders.
# value in M⁻¹ s⁻¹; strip the unit string

hX3.12.7 Fab (Fab, V domains shown, The text says that hX3.12.5 to hX3.12.8 all utilized VL2) VH: EQQVVESGGGLVQPGGSLRLSCAVSGFSLSSYGVTWVRQAPGKGLEWIGYINTAGNTYYASWAKSRFTISRNTNENTVYLQMNSLRAEDTAVYFCARDDRWSLNIWGQGTLVTVSS VL: DPMLTQSPSSLSASVGDRVTITCQASQSISSDLSWYQQKPGKAPKLLIYQASTLASGVPSRFKGSGYGTEYTLTISSLQPEDFATYYCLGGYADASYRTAFGGGTKLEIK; 110000
hX3.12.8 Fab (Fab, V domains shown, The text says that hX3.12.5 to hX3.12.8 all utilized VL2) VH: EQQVVESGGGLVQPGGSLRLSCAASGFSLSSYGVTWVRQAPGKGLEWVGYINTAGNTYYASWAKSRFTISRDNSKNTVYLQMNSLRAEDTAVYYCARDDRWSLNIWGQGTLVTVSS VL: DPMLTQSPSSLSASVGDRVTITCQASQSISSDLSWYQQKPGKAPKLLIYQASTLASGVPSRFKGSGYGTEYTLTISSLQPEDFATYYCLGGYADASYRTAFGGGTKLEIK; 130000
h401.6 Fab (hX3.12.6 framework regions with parental 401 CDR sequences) (Fab, V domains shown, this is an inference) VH: EVQLVESGGGLVQPGGSLRLSCAASGFTFSSYGVTWVRQAPGKGLEWVSYINTAGNTYYASWAKSRFTISRDNAKNSLYLQMNSLRAEDTAVYYCARDWTSLNIWGQGTLVTVSS VL: DPMLTQSPSSLSASVGDRVTITCQASQSISSDLSWYQQKPGKAPKLLIYQASTLASGVPSRFKGSGYGTEYTLTISSLQPEDFATYYCLGGYADASYRTAFGGGTKLEIK; 14000
XBR2-401-hX3.12.5 Fab (affinity matured and humanized) (Fab, V domains shown, Fab expressed in E. coli) VH: EVQLVESGGGLIQPGGSLRLSCAASGFTVSSYGVTWVRQAPGKGLEWVSYINTAGNTYYASWAKSRFTISRDNSKNTLYLQMNSLRAEDTAVYYCARDDRWSLNIWGQGTLVTVSS VL: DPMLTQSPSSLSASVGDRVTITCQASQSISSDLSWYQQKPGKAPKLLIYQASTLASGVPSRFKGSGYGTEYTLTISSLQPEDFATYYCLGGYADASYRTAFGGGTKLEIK; 190000

Exercise: Annotate the binder XBR2-401-hX3.12.6 Fab (affinity matured and humanized) (Fab, V domains shown, Fab expressed in E. coli) VH: EVQLVESGGGLVQPGGSLRLSCAASGFTFSSYGVTWVRQAPGKGLEWVSYINTAGNTYYASWAKSRFTISRDNAKNSLYLQMNSLRAEDTAVYYCARDDRWSLNIWGQGTLVTVSS VL: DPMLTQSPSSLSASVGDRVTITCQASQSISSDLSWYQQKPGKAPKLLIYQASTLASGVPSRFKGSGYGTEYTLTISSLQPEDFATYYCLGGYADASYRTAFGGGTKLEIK with its measured kon.
Key: 60000
